System: SR leukemia
Assay: NCI-60 one-dose screen, 48 h (100 = growth as untreated, 0 = no growth, -100 = all killed)
Conditions: 10 µM unless noted
The panel holds about 83,000 compounds, 20% with a hit somewhere; the sample as a whole holds those more often.
Kindly apply the following: yes if growth is less than 50%, no in every other case.

The examples below pair each entry with its known result.
compound	group
C=C(C)[C@@H]1CC[C@]2(C(=O)NCCCN(CCC#N)CCC#N)CC[C@]3(C)[C@H](CC[C@@H]4[C@@]5(C)CCC(=O)C(C)(C)[C@@H]5CC[C@]43C)[C@@H]12	no
O=C(O)c1ccc(-n2cc(CNc3ccc(F)cc3)c(-c3ccc(C(F)(F)F)cc3)n2)cc1	no
O=C(c1cccc(F)c1)n1ccc2cc(NC(=S)Nc3cccnc3)ccc21	no
O=C(/C=C/c1cccc(O)c1)c1ccc(O)cc1	yes
O=C(C[n+]1ccnc2ccccc21)c1ccc(O)c(O)c1	yes
CS(=O)(=O)c1ccc(-c2nn(-c3ccccc3)cc2/C=C/C(=O)c2ccc(Br)cc2)cc1	no
Oc1ccc(-c2nnc(SCc3ccc(O)c4ncccc34)n2-c2ccccc2)cc1	yes
COc1ccc(-c2oc3cc(O)cc(O)c3c(=O)c2OC)cc1O	yes

Input: Take the compound CC(C)Sc1nc(NC2CC2)c(C#N)c(-c2ccccc2)n1 and say whether its growth is less than 50%.
Output: no

Input: Threshold test, growth < 50%: CCC(C)[C@H]1OC(=O)[C@H](C(C)C)N(C)C(=O)[C@@H](C(C)C)OC(=O)[C@H](C(C)C)N(C)C(=O)[C@@H](C(C)CC)OC(=O)[C@H](C(C)C)N(C)C1=O (some centres not stated)
Output: yes

Input: Item CC(C)SC1=NC(=C(C(=N1)NC2=ClC=CC=C2)C#N)C3=CC=CC=C3 : growth beneath 50%, strictly?
Output: no

Input: For this compound, is growth lower than 50%? CS(=O)(=O)c1ccc2c(c1)c1c(n2Cc2ccc(Cl)cc2)CCCC1
Output: yes

Input: Hi there! Is growth for CC1OC(O[C@@H]2[C@H](O)C(CO)OC(O[C@H]3COC(O[C@H]4CC[C@]5(C)[C@H]6CC[C@]78OC[C@@]9(CCC(C)(C)C[C@H]97)[C@H](O)C[C@@]8(C)[C@]6(C)CC[C@H]5C4(C)C)[C@@H](OC4OC(CO)[C@@H](O)[C@@H](O)[C@@H]4O)[C@@H]3O)[C@H]2OC2OC[C@@H](O)[C@@H](O)[C@@H]2O)[C@@H](O)[C@@H](O)[C@H]1O (some centres not stated) below 50%, do you know?
Output: yes

Input: # TODO verify growth < 50% strictly for this compound: CC1=C2C(=C[C@@](C)(COS(N)(=O)=O)[C@@H]2O)C(=O)[C@](C)(O)C12CC2
Output: no

Input: Strictly below 50%: is that where growth of CN1CCN(Cc2ccc(NC(=O)c3cncc(C#Cc4[nH]nc5ncncc45)c3)cc2C(F)(F)F)CC1 sits?
Output: yes

Input: In plain terms, does COc1cc(/C=N/n2cnc3oc(-c4ccccc4)cc3c2=N)cc(CN2CCCC2)c1O come in under 50% for growth?
Output: yes
